Test: Antiinflammatory activity assessed as prevention of hypotonicity-induced lysis of human RBC at 10 ug/ml
Assay type: functional, Erythrocyte

{"columns": ["smilesStr", "u", "Activity"],
 "data": [
  ["Cc1cc2c(cc1C)COc1ccccc1C(=O)Nc1ccccc1SCc1ccc(cc1)-c1cccc(c1)-c1ccc(cc1)CSc1ccccc1NC(=O)c1ccccc1OC2", "%", 48.27],
  ["Cc1cc2c(cc1C)COc1ccccc1C(=O)Nc1ccccc1SCc1ccc(cc1)-c1ccc(cc1)CSc1ccccc1NC(=O)c1ccccc1OC2", "%", 65.17],
  ["Cc1cc2c(cc1C)COc1ccccc1C(=O)Nc1ccccc1SCCOc1ccc(cc1)NC(=O)c1ccccc1OC2", "%", 44.28],
  ["O=C1CSc2ccccc2NC(=O)c2ccccc2OCc2ccccc2COc2ccccc2C(=O)Nc2ccccc2SCC(=O)Nc2ccccc2N1", "%", 40.53],
  ["Cc1cc2c(cc1C)COc1ccccc1C(=O)N(c1ccccc1)CCNC(=O)COc1ccccc1OCC(=O)NCCN(c1ccccc1)C(=O)c1ccccc1OC2", "%", 38.84],
  ["Cc1cc2c(cc1C)COc1ccccc1C(=O)Nc1ccccc1SCc1ccc(cc1)NC(=O)c1ccccc1OC2", "%", 50.31]
]}
